Items are presented alongside their recorded GBA EC50 Ratio ([35S]GTPγS binding) (EC50 compound/EC50 PYY(3-36)).
# targetUnderTest: human Y2 receptor (human) (UniProt P49146)
# Sequence (P49146 whole entry): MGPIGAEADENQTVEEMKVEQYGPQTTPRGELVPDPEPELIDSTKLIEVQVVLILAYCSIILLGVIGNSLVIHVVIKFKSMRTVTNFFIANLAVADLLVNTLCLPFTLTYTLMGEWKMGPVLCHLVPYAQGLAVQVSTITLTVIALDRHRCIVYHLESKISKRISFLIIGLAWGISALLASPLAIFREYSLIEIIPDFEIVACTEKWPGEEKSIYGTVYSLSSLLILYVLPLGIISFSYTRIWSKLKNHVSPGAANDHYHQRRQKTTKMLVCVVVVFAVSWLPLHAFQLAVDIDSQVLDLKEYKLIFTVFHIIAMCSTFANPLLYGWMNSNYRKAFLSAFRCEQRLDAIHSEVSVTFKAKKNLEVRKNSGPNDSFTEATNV
# protocolDescription: cell-based or functional assay
Non-standard residues stand in square brackets, D forms with d. *: point of attachment. X4 = ((1S)-1-Carboxy-3-methylbutyl)carbamoyl, CC(C)C[C@H](NC(=O)*)C(=O)O; tBuAla = CC(C)(C)C[C@H](N)C(=O)O; 4Pal = N[C@@H](Cc1ccncc1)C(=O)O; dHyp = O=C(O)[C@H]1C[C@H](O)CN1; Cha = N[C@@H](CC1CCCCC1)C(=O)O; Iva = CC[C@](C)(N)C(=O)O; Aib = CC(C)(N)C(=O)O

Example entries and their recorded answers appear below.
binder: X4-Q[dP]R[4Pal][Cha][Aib]NK[Aib]TRQR[Cha]-NH2 (not fully specified; printed as [(1S)-1-Carboxy-3-methylbutyl]carbamoyl-[Gln23, D-Pro24, Pya(4)26, Cha27,36, Aib28,31, Lys30]-PYY(23-36))
reportedResult: 1.3
--
binder: Ac-S[dP]K(Ac)[4Pal][Cha][Aib]NK[Aib]TRQR[Cha]-NH2 (SMILES CC(=O)NCCCC[C@H](NC(=O)[C@H]1CCCN1C(=O)[C@H](CO)NC(C)=O)C(=O)N[C@@H](Cc1ccncc1)C(=O)N[C@@H](CC1CCCCC1)C(=O)NC(C)(C)C(=O)N[C@@H](CC(N)=O)C(=O)N[C@@H](CCCCN)C(=O)NC(C)(C)C(=O)N[C@H](C(=O)N[C@@H](CCCNC(=N)N)C(=O)N[C@@H](CCC(N)=O)C(=O)N[C@@H](CCCNC(=N)N)C(=O)N[C@@H](CC1CCCCC1)C(N)=O)[C@@H](C)O) [Ac-[D-Pro24, Lys(Ac)25, Pya(4)26, Cha27,36, Aib28,31, Lys30]-PYY(23-36)]
reportedResult: 4.2
--
binder: Ac-T[dP]R[4Pal][Cha][Aib]NK[Aib]TRQR[Cha]-NH2 (SMILES CC(=O)N[C@H](C(=O)N1CCC[C@@H]1C(=O)N[C@@H](CCCNC(=N)N)C(=O)N[C@@H](Cc1ccncc1)C(=O)N[C@@H](CC1CCCCC1)C(=O)NC(C)(C)C(=O)N[C@@H](CC(N)=O)C(=O)N[C@@H](CCCCN)C(=O)NC(C)(C)C(=O)N[C@H](C(=O)N[C@@H](CCCNC(=N)N)C(=O)N[C@@H](CCC(N)=O)C(=O)N[C@@H](CCCNC(=N)N)C(=O)N[C@@H](CC1CCCCC1)C(N)=O)[C@@H](C)O)[C@@H](C)O) [Ac-[Thr23, D-Pro24, Pya(4)26, Cha27,36, Aib28,31, Lys30]-PYY(23-36)]
reportedResult: 0.69

Kindly review the next binder as well.
response.value for Ac-E[dHyp][Iva][4Pal][Cha][tBuAla]NK[Aib]TRQR[Cha]-NH2 (SMILES CC[C@](C)(NC(=O)[C@H]1C[C@H](O)CN1C(=O)[C@H](CCC(=O)O)NC(C)=O)C(=O)N[C@@H](Cc1ccncc1)C(=O)N[C@@H](CC1CCCCC1)C(=O)N[C@@H](CC(C)(C)C)C(=O)N[C@@H](CC(N)=O)C(=O)N[C@@H](CCCCN)C(=O)NC(C)(C)C(=O)N[C@H](C(=O)N[C@@H](CCCNC(=N)N)C(=O)N[C@@H](CCC(N)=O)C(=O)N[C@@H](CCCNC(=N)N)C(=O)N[C@@H](CC1CCCCC1)C(N)=O)[C@@H](C)O) [Ac-[Glu23, D-Hyp24, Iva25, Pya(4)26, Cha27,36, Leu(Me)28, Lys30, Aib31]-PYY(23-36)] (field: GBA EC50 Ratio ([35S]GTPγS binding) (EC50 compound/EC50 PYY(3-36))) = 1.9

The values you see were collected from patent US20120172293A1.
